Data origin, for the record: patent US20180057604A1

# measuredTarget: BACE1 (HTRF long substrate and FRET short substrate assays of Example 9D)
# protocolSummary: cell-based or functional assay
measurementKind: EC50, FRET short substrate
The answer should read as a number with its unit following.

[in] Dear colleague, I am looking for the recorded EC50, FRET short substrate of the following binder: 5896 (antibody, V domains shown, anti-BACE1 IgG) VH: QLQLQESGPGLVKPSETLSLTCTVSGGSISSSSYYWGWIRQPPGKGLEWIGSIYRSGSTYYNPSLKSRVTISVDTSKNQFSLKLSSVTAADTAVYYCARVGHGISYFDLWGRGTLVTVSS VL: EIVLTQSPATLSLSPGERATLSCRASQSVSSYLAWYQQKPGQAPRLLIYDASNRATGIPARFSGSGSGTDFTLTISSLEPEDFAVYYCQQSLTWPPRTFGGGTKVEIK
[out] 3.35 nM

[in] Dear colleague, I am looking for the recorded EC50, FRET short substrate of the following binder: 5903 (antibody, V domains shown) VH: QLQLQESGPGLVKPSETLSLTCTVSGGSISSSSYYWGWIRQPPGKGLEWIGMIYYSGSTWYNPSLKSRVTISVDTSKNQFSLKLSSVTAADTAVYYCARVGHGISYFDLWGRGTLVTVSS VL: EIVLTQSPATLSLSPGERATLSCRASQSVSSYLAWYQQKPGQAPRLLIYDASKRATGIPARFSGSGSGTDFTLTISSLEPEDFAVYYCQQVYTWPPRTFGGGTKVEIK
[out] 3.12 nM

[in] Dear colleague, I am looking for the recorded EC50, FRET short substrate of the following binder: 5897 (antibody, V domains shown, anti-BACE1 IgG) VH: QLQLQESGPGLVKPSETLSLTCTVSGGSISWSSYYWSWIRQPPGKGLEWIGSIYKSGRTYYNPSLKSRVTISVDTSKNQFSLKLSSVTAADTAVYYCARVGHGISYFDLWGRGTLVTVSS VL: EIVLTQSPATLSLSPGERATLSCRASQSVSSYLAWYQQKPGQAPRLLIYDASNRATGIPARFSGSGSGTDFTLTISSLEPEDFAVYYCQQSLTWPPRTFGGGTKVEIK
[out] 0.528 nM

[in] Dear colleague, I am looking for the recorded EC50, FRET short substrate of the following binder: 5890 (antibody, V domains shown, anti-BACE1 IgG) VH: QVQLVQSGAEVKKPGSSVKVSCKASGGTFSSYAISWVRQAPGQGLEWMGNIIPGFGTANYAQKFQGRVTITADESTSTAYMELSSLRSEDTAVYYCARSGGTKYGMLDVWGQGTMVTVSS VL: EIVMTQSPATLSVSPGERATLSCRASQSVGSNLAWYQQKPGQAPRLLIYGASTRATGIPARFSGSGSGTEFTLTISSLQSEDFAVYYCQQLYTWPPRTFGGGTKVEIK
[out] 32.4 nM

As a next step, examine the binder that follows.
[in] Dear colleague, I am looking for the recorded EC50, FRET short substrate of the following binder: 5893 (antibody, V domains shown, anti-BACE1 IgG) VH: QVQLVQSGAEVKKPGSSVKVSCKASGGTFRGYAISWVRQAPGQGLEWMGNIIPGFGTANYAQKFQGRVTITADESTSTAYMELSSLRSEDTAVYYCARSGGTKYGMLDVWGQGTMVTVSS VL: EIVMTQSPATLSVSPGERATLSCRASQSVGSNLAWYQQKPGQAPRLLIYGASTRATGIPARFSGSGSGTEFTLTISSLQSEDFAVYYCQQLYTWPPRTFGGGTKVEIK
[out] 8.84 nM
